TARGET UNDER TEST: Env of HIV-1 strain 251-18 (HIV-1)
PROCEDURE DETAILS: cell-based or functional assay
PROPERTY MEASURED: neutralization IC50

Task item: Entry γ44κ61 (antibody, V domains shown) VH: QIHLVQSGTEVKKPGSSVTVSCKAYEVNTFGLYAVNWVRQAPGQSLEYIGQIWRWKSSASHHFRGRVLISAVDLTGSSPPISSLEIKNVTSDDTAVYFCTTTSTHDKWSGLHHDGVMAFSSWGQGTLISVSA VL: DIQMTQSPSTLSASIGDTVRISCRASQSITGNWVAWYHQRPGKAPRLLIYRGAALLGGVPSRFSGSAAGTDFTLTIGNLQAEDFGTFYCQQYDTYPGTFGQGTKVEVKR has what neutralization IC50?
Reply: > 15 µg/mL

Then there is this binder:
Task item: Entry γ20κ11 (antibody, V domains shown) VH: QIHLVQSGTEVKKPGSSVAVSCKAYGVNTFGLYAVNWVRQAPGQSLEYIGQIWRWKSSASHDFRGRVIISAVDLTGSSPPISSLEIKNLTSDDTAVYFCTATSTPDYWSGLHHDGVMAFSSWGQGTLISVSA VL: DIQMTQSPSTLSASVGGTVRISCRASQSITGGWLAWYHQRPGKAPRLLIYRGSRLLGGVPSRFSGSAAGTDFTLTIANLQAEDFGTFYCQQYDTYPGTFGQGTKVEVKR has what neutralization IC50?
Reply: > 15 µg/mL
